Ref: the supplement of paper PMC9170038

Tested on: MS2 coat protein
PROTOCOL TEXT: apparent KD of MS2 coat protein; designed switch direction (-1 OFF switch, 1 ON switch): 1; higher = weaker reporter binding
MEASUREMENT CONDITIONS: input ligand: microRNA oligo, concentration not stated
Recorded apparent KD of MS2 coat protein determines the group label, using bin 0 (below 30 nM), bin 1 (30 nM to below 200 nM), bin 2 (200 nM or more)

## Task Please report the category associated with UUGCUCGUGUGAGGAUAUGCAGCCGUUUCGGCUGCAGAAGGUACUAUAAUACAUGAGGAUCACCCAUGUCUCUGUUGUUUGGUG [salish99_SSNG1_r04_930] (Eterna round: R96, puzzle: Same State NG 1) , nothing else.
## Result bin 1

## Task Please report the category associated with UGGCUCAGAGCAGGAUAUAUGUGAUCACAUGAGGAUCACCCAUGUCUCGAGCUUCGGCUCGAGACAUAGAAGGGCUCUGAGCCA [SSNG2/3-B2] (Eterna round: R96, puzzle: Same State NG 2) , nothing else.
## Result bin 0

## Task Please report the category associated with GUGGUCAGACAUGAGGAUCACCCAUGUGGAAUAAAUAAGGAGAAGGAUAUGCAAUAUAGGAUAUAGUAGAAGGUCUGGUUGGUG (Eterna round: R96, puzzle: Same State NG 3) , nothing else.
## Result bin 1

## Task Please report the category associated with GACCGCGAGGAAGGAUAUGGAGCCUUAUUGGCUCCAGAAGGUCCAUAAAGGACAUGAGGAUCACCCAUGUGGUGAGAAGCGGUC [Fiskers NG1ss - 27] (Eterna round: R96, puzzle: Same State NG 1) , nothing else.
## Result bin 2
